- Assayed Target: CYP17 (human testicular microsome) (Homo sapiens, UniProt P05093)
- Construct: using microsomal fraction from human testis (Celsis Cat #S00110) as the enzyme source; tissue Celsis S00110; host or cells: human testis microsomal fraction
- Sequence (P05093 whole entry): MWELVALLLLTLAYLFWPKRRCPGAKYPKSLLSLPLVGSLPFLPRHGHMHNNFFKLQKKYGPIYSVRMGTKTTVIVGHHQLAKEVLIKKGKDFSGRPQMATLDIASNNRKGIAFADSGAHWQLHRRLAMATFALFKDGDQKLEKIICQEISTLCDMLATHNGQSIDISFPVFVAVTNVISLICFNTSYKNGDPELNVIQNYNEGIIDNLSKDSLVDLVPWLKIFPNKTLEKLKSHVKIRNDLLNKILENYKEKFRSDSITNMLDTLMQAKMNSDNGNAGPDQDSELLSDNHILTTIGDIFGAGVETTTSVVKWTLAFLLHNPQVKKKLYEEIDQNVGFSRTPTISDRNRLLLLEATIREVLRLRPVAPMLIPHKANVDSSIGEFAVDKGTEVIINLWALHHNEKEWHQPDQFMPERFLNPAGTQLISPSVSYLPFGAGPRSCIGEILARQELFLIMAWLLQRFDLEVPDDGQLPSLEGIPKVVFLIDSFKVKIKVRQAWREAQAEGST
- Assay Procedure: CYP17 enzymatic assay (% inhibition at 10 nM), version 1 (Biological Example 5)
- Type: biochemical
- Setup Conditions: 10 nM compound, DHEA by ELISA, read-out: Biological Example No. 5: CYP17 percent inhibition at 10 nM (version 1)
Parameter Measured: inhibition at 0.01 µM

• Cc1cn(C2=CC[C@H]3[C@@H]4CCC5=CC(=O)NCC[C@]5(C)[C@H]4CC[C@]23C)cn1 [Compound 154] = 50 to 80%
• CCOc1cncc(C2=CC[C@H]3[C@@H]4CC[C@H]5CCCCC[C@]5(C)[C@H]4CC[C@]23C)c1 [Compound 94] = 1 to 50%
• CCc1cncc(C2=CC[C@H]3[C@@H]4CC[C@H]5CCCCC[C@]5(C)[C@H]4CC[C@]23C)c1 [Compound 93] = 1 to 50%
• C[C@]12CCCC(=O)CC1=CC[C@@H]1[C@@H]2CC[C@]2(C)C(c3cnccn3)=CC[C@@H]12 [Compound 142] = > 80%
• C[C@]12CCNC(=O)C=C1CC[C@@H]1[C@@H]2CC[C@]2(C)C(n3ncnn3)=CC[C@@H]12 [Compound 63] = > 80%
• C[C@]12CC(=O)C[C@@H]1CC[C@@H]1[C@@H]2CC[C@]2(C)C(n3ccnn3)=CC[C@@H]12 [Compound 110] = 1 to 50%
• C[C@]12CC[C@H]3[C@@H](CC[C@H]4C[C@@H](O)CC[C@@]43C)C1=CC=C2n1ccnc1 [Compound 170] = > 80%
• C[C@]12CC[C@H]3[C@@H](CC[C@H]4CC(=O)CC[C@@]43C)C1=CC=C2n1ccnc1 [Compound 171] = > 80%
• CCCOc1cncc(C2=CC[C@H]3[C@@H]4CCN5C(=O)CCCC[C@]5(C)[C@H]4CC[C@]23C)c1 [Compound 42] = 50 to 80%
• C[C@]12CC[C@H]3[C@@H](CC[C@H]4CNC(=O)CC[C@@]43C)C1=CC=C2c1cccnc1 [Compound 166] = 50 to 80%
• C[C@]12CCCNCC1CCC1C2CC[C@]2(C)C(n3ccnn3)=CCC12 (some centres unmarked) [Compound 140] = 1 to 50%
• C[C@]12CCNC(=O)C=C1CC[C@@H]1[C@@H]2CC[C@]2(C)C(c3cncnc3)=CC[C@@H]12 [Compound 60] = 50 to 80%
• C[C@]12CCCCC[C@@H]1CC[C@@H]1[C@@H]2CC[C@]2(C)C(c3cccnc3)=CC[C@@H]12 [Compound 90] = 1 to 50%
• CN1CC[C@@]2(C)C(=CC1=O)CC[C@@H]1[C@@H]2CC[C@]2(C)C(n3cnc4ccccc43)=CC[C@@H]12 [Compound 155] = 1 to 50%

---

inhibition at 0.1 µM for assorted compounds
- Assayed Target: Cyp21 enzyme (Human HEK 293-Cyp21 stable transfected cells) (Homo sapiens)
- Construct: expressed in transfected cells
- Sequence (P08686 1-495): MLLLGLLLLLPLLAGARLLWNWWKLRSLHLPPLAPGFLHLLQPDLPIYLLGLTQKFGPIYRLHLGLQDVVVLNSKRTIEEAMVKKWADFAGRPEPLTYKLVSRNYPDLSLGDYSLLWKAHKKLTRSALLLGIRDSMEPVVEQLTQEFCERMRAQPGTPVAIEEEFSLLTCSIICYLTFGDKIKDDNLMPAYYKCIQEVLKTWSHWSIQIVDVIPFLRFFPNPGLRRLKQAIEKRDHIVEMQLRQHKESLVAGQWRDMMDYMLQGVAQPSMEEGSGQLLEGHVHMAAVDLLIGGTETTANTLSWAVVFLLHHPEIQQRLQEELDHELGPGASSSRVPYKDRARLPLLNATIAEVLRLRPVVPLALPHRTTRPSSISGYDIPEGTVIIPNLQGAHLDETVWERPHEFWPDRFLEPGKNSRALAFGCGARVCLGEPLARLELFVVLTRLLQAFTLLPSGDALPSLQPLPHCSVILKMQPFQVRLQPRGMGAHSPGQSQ
- Assay Procedure: CYP21-HEK293 enzymatic assay (% inhibition at 100 nM) (Biological Example 10)
- Format: cell-based
- Setup Conditions: 100 nM compound, HEK 293-Cyp21 cells; read-out: Biological Example No. 10: CYP21-HEK293 percent inhibition at 100 nM
- Protocol: Proceeding using methods similar to those described in Biological Example 11, the percent inhibition at 100 nM was measured. This assay was used to determine compound activity against Cyp21 enzyme. […] The mean absorbance value for each sample was used to determine the corresponding concentration from the standard curve. Data was analyzed with “log(antagonist) vs response variable slope” under “non-linear regression analysis” using Prism5 software.
Parameter Measured: inhibition at 0.1 µM

* C[C@]12CCC(=O)NC=C1CCC1C2CC[C@]2(C)C(n3cnnn3)=CCC12 (stereo partly drawn) | < 30%
* C[C@]12CC[C@H]3[C@@H](CC[C@H]4CC(=O)CC[C@@]43C)C1=CC=C2n1ccnc1 | < 30%
* C[C@]12CC[C@H]3[C@@H](CCN4CCCCC[C@]34C)[C@@H]1CC=C2c1cccnc1 | < 30%
* Cc1cncc(C2=CC[C@H]3[C@@H]4CCC5=CC(=O)NCC[C@]5(C)[C@H]4CC[C@]23C)c1 | ≥ 30%
* C[C@]12CC[C@H]3[C@@H](CC[C@H]4CC(=O)CC[C@@]43C)C1=CC=C2c1cccnc1 | ≥ 30%
* C[C@]12CCCCC1C(=O)C[C@@H]1[C@@H]2CC[C@]2(C)C(n3ccnc3)=CC[C@@H]12 (stereo partly drawn) | < 30%
